Molecular target: human ether-à-go-go-related gene (hERG) potassium channel (human);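 further: peak tail current of the secondary pulse compared with the same well before compound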
Assay: primary screen, population patch clamp on CHO cells stably expressing hERG; higher = less effect of the substance
Experimental: Briefly, Chinese hamster ovary (CHO) cells stably expressing the hERG channel were dislodged from tissue culture flasks and dispensed into PPC plates. […] During the recording, background leak currents were estimated by a 100 ms step to -80 mV from an initial holding potential of -70 mV and subtracted from the subsequent current measurement. The campaign was conducted in two phases using slight differences in recording protocol. […]
Hit rate of the full screen: of about 310,000 compounds, about 14,000 (4.5%) showed an effect of 50% or more. Effects have a minus sign here. The full list was thinned out, with strong results kept by preference.
Please enter 1.0 where hERG current change (%, negative = inhibition) at 10uM is greater than or equal to -20%, and 0.0 where it is lower.

[[record]]
compound = "CCOC(=O)C1(Cc2ccccc2Cl)CCN(Cc2csc(C(C)=O)c2)CC1"
target_under_test = "human ether-à-go-go-related gene (hERG) potassium channel (human)"
category_label = 1.0

[[record]]
compound = "Cc1ccc(CN2CCN(Cc3ccccc3-c3ccco3)CC2CCO)o1 (stereo not shown)"
target_under_test = "human ether-à-go-go-related gene (hERG) potassium channel (human)"
category_label = 0.0

[[record]]
compound = "COc1ccc(Cl)cc1NC(=O)CN(C)C(=O)CCCNC(=O)c1ccc(Cl)cc1"
target_under_test = "human ether-à-go-go-related gene (hERG) potassium channel (human)"
category_label = 0.0


Asked: Can Nc1c(C(=O)NC23CC4CC(CC(C4)C2)C3)sc2nc3c(c(C(F)(F)F)c12)CCC3 be said to have hERG current change (%, negative = inhibition) at 10uM at or above -20%?
Given back: 1.0

Asked: Can CCC(C)[C@H](NC(=O)Nc1ccc(S(N)(=O)=O)cc1)C(=O)OC (stereo partly shown) be said to have hERG current change (%, negative = inhibition) at 10uM at or above -20%?
Given back: 1.0

Asked: Can O=C(NCc1ccccc1F)C1CCCN(C(=O)Nc2ccccc2)C1 (stereo not shown) be said to have hERG current change (%, negative = inhibition) at 10uM at or above -20%?
Given back: 1.0

Asked: Can CCCCC[C@H]1CN(Cc2ccccc2)C(=O)[C@@H]1CC(=O)NCc1ccc(OC)cc1 be said to have hERG current change (%, negative = inhibition) at 10uM at or above -20%?
Given back: 0.0

###

Biological target: human ether-à-go-go-related gene (hERG) potassium channel (human, UniProt Q12809);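 further: peak tail current of the secondary pulse compared with the same well before compound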
Sequence (Q12809 whole entry, looked up): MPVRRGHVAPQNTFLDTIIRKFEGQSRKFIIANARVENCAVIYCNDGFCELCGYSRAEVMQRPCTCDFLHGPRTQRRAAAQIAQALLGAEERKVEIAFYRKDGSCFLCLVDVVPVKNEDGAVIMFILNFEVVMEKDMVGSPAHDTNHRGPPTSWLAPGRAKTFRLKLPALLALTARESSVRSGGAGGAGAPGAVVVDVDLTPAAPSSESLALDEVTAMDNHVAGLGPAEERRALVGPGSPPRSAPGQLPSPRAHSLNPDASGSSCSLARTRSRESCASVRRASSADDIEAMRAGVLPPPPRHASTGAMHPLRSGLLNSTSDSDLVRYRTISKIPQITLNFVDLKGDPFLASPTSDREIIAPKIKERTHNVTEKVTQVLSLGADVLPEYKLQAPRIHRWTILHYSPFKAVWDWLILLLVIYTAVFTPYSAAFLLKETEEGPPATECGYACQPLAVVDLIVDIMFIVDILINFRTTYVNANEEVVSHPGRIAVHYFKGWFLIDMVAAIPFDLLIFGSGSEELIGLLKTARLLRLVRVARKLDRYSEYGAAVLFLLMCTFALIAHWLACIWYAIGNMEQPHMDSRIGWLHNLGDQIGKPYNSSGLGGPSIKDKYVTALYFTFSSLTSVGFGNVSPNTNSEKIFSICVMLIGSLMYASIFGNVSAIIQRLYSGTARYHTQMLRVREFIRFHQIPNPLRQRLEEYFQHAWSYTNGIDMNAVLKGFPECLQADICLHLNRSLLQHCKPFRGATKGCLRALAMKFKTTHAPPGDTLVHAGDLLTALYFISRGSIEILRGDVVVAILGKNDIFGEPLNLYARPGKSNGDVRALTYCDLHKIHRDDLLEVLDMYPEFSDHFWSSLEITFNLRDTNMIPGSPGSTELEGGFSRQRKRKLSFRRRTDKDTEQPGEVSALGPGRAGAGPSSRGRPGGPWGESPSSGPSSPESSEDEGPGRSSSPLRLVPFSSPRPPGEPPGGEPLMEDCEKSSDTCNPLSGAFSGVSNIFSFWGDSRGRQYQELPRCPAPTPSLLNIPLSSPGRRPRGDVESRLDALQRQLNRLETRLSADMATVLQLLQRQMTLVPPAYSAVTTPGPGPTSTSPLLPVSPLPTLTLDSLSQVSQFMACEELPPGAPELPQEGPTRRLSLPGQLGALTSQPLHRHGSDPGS
Assay: primary screen, population patch clamp on CHO cells stably expressing hERG; higher = less effect of the substance
Method: Briefly, Chinese hamster ovary (CHO) cells stably expressing the hERG channel were dislodged from tissue culture flasks and dispensed into PPC plates. […] During the recording, background leak currents were estimated by a 100 ms step to -80 mV from an initial holding potential of -70 mV and subtracted from the subsequent current measurement. The campaign was conducted in two phases using slight differences in recording protocol. […]
The whole screen tested about 310,000 compounds, of which about 14,000 (4.5%) showed an effect of 50% or more. Effects have a minus sign here. Many of the other results were omitted from the sample, so strong results are more common in it than they were.
test-readout: hERG current change (%, negative = inhibition) at 10uM (%)
Answer with a number only, understood to be in %.

The examples below pair each entry with its known result.
[[record]]
compound = "CC1CC(C)CN(CCCNC(=O)Cn2cccc2C(=O)c2ccccc2)C1 (stereo not drawn)"
units = "%"
val = -63.1

[[record]]
compound = "CC(=O)c1ccc(-n2cc(-c3ccc(C(C)(C)C)cc3)[n+]3c2SCCC3)cc1.[Br-]"
units = "%"
val = -30.1

[[record]]
compound = "NC(=O)c1c(NC(=O)c2cccnc2)sc2c1CCCC2"
units = "%"
val = 17.5

[[record]]
compound = "COc1ccc(-n2cc(-c3ccc(OC)c(OC)c3)[nH]c2=S)cc1"
units = "%"
val = 6.1


Asked: Given O=c1[nH]c(=O)n(CCc2ccccc2)c(O)c1C=NC1CC1 , respond with its hERG current change (%, negative = inhibition) at 10uM.
Given back: 3.17

Asked: Given CCc1ccc(OCCSc2nc3ccccc3n2CC(=O)O)cc1 , respond with its hERG current change (%, negative = inhibition) at 10uM.
Given back: 3.37

Asked: Given O=C(NCCCN1CCOCC1)c1cc(S(=O)(=O)N2CCN(c3ccccc3)CC2)ccc1Cl , respond with its hERG current change (%, negative = inhibition) at 10uM.
Given back: -76.6

Asked: Given Cc1nn(C2CCS(=O)(=O)C2)c(Cl)c1/C=C/C(=O)OCC(=O)c1cc(C)n(-c2ccc(F)cc2)c1C (stereo not drawn) , respond with its hERG current change (%, negative = inhibition) at 10uM.
Given back: 4.11
